- tgt: T1, 1:1 HAESA – SERK1 ectodomain mixture (Arabidopsis thaliana, UniProt P47735 20-620; Q94AG2 24-213, Asn115→Asp | Asn163→Gln, N-glycans)
- T1 sequence 1: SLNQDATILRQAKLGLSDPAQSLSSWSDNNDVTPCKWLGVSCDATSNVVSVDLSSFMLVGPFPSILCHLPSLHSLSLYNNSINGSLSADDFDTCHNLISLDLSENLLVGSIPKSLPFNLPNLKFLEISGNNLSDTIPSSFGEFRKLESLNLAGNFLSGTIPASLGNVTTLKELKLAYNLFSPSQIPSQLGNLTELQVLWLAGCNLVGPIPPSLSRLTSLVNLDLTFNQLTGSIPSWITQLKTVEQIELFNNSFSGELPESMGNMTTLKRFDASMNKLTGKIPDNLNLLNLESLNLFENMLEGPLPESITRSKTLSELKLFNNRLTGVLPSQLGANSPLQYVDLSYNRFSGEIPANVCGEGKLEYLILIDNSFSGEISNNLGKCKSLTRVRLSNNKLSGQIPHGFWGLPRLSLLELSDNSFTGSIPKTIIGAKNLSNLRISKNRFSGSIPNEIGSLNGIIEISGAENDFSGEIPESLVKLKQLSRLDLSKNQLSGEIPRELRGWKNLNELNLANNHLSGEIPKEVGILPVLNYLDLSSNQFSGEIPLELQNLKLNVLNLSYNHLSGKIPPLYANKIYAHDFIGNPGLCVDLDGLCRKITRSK
- T1 sequence 2: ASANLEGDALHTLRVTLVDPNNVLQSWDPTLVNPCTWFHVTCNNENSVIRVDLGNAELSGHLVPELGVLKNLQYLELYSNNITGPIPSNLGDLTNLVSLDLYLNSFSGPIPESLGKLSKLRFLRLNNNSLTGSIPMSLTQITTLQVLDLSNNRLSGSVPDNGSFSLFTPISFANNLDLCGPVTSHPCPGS
- protocol description: ITC; HAESA - SERK1 mixture in cell
pKd: −log10 of the molar value. Non-standard residues stand in square brackets, D forms with d. No end group written: not given here. Hyp = O=C(O)[C@@H]1C[C@@H](O)CN1
measurement kind: pKd

YVPIPPSA[Hyp]SKRHN (N-terminal Tyr residue added to allow for peptide quantification by UV absorbance; INFLORESCENCE DEFICIENT IN ABSCISSION (IDA), Arabidopsis thaliana; Hyp written as P; Used in ITC and for the HAESA-IDA-SERK1 complex that was crystallised; also called wild-type IDA; IDA wild-type; source: synthetic peptide) [synthetic IDA peptide YVPIPPSA-Hyp-SKRHN]; 6.46
